# Test system: Influenza A virus
# PROTOCOL NOTES: Antiviral activity against oseltamivir-resistant influenza A virus H1N1 clinical isolate IAV/Tianjin Jinnan/15/2009 infected in MDCK cells
# Format: functional, organism-based
# CONDITION SUMMARY: H1N1(IAV/Tianjin Jinnan/15/2009)
Note to self: IC50 under 700 nM means T, ties and anything higher get F.

Below 700 nM on IC50? Entry CCC(CC)n1nnc([C@@H](c2ccc(F)cc2)N2CCN(C(=O)c3cc(-c4nc5cc(NC(C)=O)ccc5o4)ccn3)CC2)n1 T

Identify whether the compound CC(=O)Nc1ccc2oc(-c3ccnc(C(=O)N4CCN([C@@H](c5ccc(F)cc5)c5nnn(C(C)C)n5)CC4)c3)nc2c1 records IC50 below 700 nM. F

Given CCCCn1nnc([C@H](c2ccc(F)cc2)N2CCN(C(=O)c3cc(-c4nc5cc(NC(C)=O)ccc5o4)ccn3)CC2)n1 , is recorded IC50 strictly lower than 700 nM? F

Report whether reported IC50 is lower than 700 nM (strictly) for CC(=O)Nc1ccc2oc(-c3ccnc(C(=O)N4CCN([C@H](c5ccc(F)cc5)c5nnn(C6CCCC6)n5)CC4)c3)nc2c1 T

Hello, is IC50 of the following compound strictly smaller than 700 nM? CC(=O)Nc1ccc2oc(-c3ccnc(C(=O)N4CCN([C@H](c5ccc(F)cc5)c5nnn(CCC(C)C)n5)CC4)c3)nc2c1 F

Below 700 nM on IC50? Entry CCCCn1nnc([C@@H](c2ccc(F)cc2)N2CCN(C(=O)c3cc(-c4nc5cc(NC(C)=O)ccc5o4)ccn3)CC2)n1 T

Is IC50 of CC(=O)Nc1ccc2oc(-c3ccnc(C(=O)N4CCN([C@H](c5ccccc5)c5nnn(C(C)C)n5)CC4)c3)nc2c1 strictly below 700 nM? T

Criterion: IC50 strictly below 700 nM. Is it met by CCC(CC)n1nnc([C@H](c2ccc(F)cc2)N2CCN(C(=O)c3cc(-c4nc5cc(NC(C)=O)ccc5o4)ccn3)CC2)n1 ? F

For this compound, is IC50 lower than 700 nM? CC(=O)Nc1ccc2oc(-c3ccnc(C(=O)N4CCN([C@@H](c5ccc(F)cc5)c5nnn(C6CCCC6)n5)CC4)c3)nc2c1 F

Take the compound CC(=O)Nc1ccc2oc(-c3ccnc(C(=O)N4CCN([C@@H](c5ccccc5)c5nnn(C(C)C)n5)CC4)c3)nc2c1 and say whether its IC50 is less than 700 nM. F

Does this compound meet the criterion IC50 < 700 nM? C=Cn1nnc([C@@H](c2ccc(F)cc2)N2CCN(C(=O)c3cc(-c4nc5cc(NC(C)=O)ccc5o4)ccn3)CC2)n1 T

Does this compound meet the criterion IC50 < 700 nM? C=Cn1nnc([C@H](c2ccc(F)cc2)N2CCN(C(=O)c3cc(-c4nc5cc(NC(C)=O)ccc5o4)ccn3)CC2)n1 F

Say whether its IC50 is strictly beneath 700 nM. Entry: CC(=O)Nc1ccc2oc(-c3ccnc(C(=O)N4CCN([C@@H](c5ccc(F)cc5)c5nnn(CCC(C)C)n5)CC4)c3)nc2c1 F

Lab note: IC50 threshold 700 nM. Does this compound come in strictly under it? CC(=O)Nc1ccc2oc(-c3ccnc(C(=O)N4CCN([C@H](c5ccc(F)cc5)c5nnn(C(C)C)n5)CC4)c3)nc2c1 T
